target: Transient receptor potential cation channel subfamily V member 1 (Homo sapiens, UniProt Q8NER1); assay: Ca2+ Influx Functional Assay for the Determination of in Vitro Activity.; conditions: pH 7.4; 22 °C
Sequence (Q8NER1 whole entry): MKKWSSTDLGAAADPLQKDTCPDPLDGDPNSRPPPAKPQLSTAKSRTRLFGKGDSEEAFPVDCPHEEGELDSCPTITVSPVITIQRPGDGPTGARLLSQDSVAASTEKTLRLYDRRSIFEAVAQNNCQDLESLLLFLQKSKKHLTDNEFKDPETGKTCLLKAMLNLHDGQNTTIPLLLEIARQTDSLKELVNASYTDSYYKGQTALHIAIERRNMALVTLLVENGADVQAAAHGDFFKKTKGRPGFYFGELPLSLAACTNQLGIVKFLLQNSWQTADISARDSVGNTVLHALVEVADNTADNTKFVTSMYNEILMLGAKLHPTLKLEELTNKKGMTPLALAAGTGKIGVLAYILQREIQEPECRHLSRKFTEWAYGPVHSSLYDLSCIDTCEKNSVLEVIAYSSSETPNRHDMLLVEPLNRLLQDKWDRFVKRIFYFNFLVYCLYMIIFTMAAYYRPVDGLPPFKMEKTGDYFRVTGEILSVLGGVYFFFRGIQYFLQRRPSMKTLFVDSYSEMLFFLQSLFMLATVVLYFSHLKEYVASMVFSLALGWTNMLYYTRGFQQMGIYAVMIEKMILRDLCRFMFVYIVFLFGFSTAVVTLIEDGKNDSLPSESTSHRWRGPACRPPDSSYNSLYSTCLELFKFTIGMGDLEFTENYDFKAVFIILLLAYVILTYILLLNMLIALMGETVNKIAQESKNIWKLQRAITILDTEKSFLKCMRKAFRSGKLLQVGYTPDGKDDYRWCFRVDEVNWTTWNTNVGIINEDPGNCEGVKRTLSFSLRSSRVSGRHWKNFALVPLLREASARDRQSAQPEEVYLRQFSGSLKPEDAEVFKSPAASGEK
resultType: EC50 (µM)
Write down the numeric answer in µM and omit the unit.

Input line: Find the measured EC50 of `O=C(NCc1ccc(Br)cc1)Nc1cccc2cc[nH]c12` and report it.
Output line: 0.18

Input line: Find the measured EC50 of `O=C(NCc1ccc(Br)cc1)Nc1ccc2[nH]ncc2c1` and report it.
Output line: 3.54

Input line: Find the measured EC50 of `O=C(NCc1ccc(C(F)(F)F)c(F)c1)Nc1cccc2[nH]ccc12` and report it.
Output line: 0.04

Input line: Find the measured EC50 of `O=C(NCc1ccc(OC(F)(F)F)cc1)Nc1cccc2[nH]ccc12` and report it.
Output line: 0.08

Input line: Find the measured EC50 of `O=C(Cc1cccc2[nH]ncc12)NCc1ccc(C(F)(F)F)cc1` and report it.
Output line: 10.2

Input line: Find the measured EC50 of `O=C(NCc1ccc(Br)cc1)Nc1ccc2[nH]ccc2c1` and report it.
Output line: 5.85

Taken from BindingDB's records for doi:10.1016/j.bmc.2006.03.027.
